Reported melting point values for a set of compounds

# compound, melting point
measured = [
    ("CCCCCCCCCCCCOc1ccc(C(=O)O)cc1", "95 °C"),
    ("NN(c1ccccc1)c1ccccc1", "50.5 °C"),
    ("CC1(C)NC(=O)NC1=O", "178 °C"),
    ("COc1cc(C#N)ccc1O", "86 °C"),
    ("O=C(O)COc1ccc(Cl)cc1", "164 °C"),
    ("Cc1cc(C)c(O)c(C)c1", "73 °C"),
    ("Cc1c(N)c(=O)n(-c2ccccc2)n1C", "109 °C"),
    ("N#Cc1ccncc1C#N", "80 °C"),
    ("COC(=O)c1ccncc1", "16.1 °C"),
    ("Cc1ccc2nc(-c3ccc(N)cc3)sc2c1", "195 °C"),
    ("C#C[C@]1(OC(C)=O)CC[C@H]2[C@@H]3CCC4=CC(=O)CC[C@@H]4[C@H]3CC[C@@]21C", "162 °C"),
    ("CC[C@H](C)C(C)(C)C", "-112 °C"),
    ("CCN(CC)CCOC(=O)C1(C2CCCCC2)CCCCC1.Cl", "165 °C"),
    ("c1ccc2c(c1)[nH]c1cnccc12", "199 °C"),
]

* * *

melting point values by entry
outcomeMeasure: melting point (°C)

# molecule, measured
data = [
    ("CCc1ccc(C)cc1C", -62.9),
    ("C=C(C)[C@H]1Cc2c(ccc3c2O[C@@H]2COc4cc(OC)c(OC)cc4[C@@H]2C3=O)O1", 176),
    ("CCCCCC/C=C\\CCCCCCCC(=O)O", 0.2),
    ("N#CCCN1CCCCC1", -6.8),
    ("CC(=O)OC[C@H]([C@H](OC(C)=O)c1ccccc1)[N+](=O)[O-]", 70),
    ("CCCCC#CCCCCC", -74.1),
    ("O=C1CN=C(c2ccccc2)c2cc(Cl)ccc2N1CC(F)(F)F", 165),
    ("Oc1ccc2c(c1)[C@@]13CCCC[C@H]1[C@@H](C2)N(CC1CC1)CC3", 188),
    ("CCCCCCCCCCCCCC(C)=O", 39.5),
    ("Nc1ccccc1I", 56.5),
    ("Cn1c(=O)c2c(ncn2CC(O)CO)n(C)c1=O (centres undefined)", 162),
    ("Nc1ccc2c3c(cccc13)-c1ccccc1-2", 116),
    ("N#Cc1cccnc1", 51),
    ("C/C(Cl)=C/C(=O)O", 61),
]

* * *

# compound, boiling point, °C
measured = [
    ("C1CCNCC1", 106),
    ("CC(C)CB(CC(C)C)CC(C)C", 188),
    ("COc1cccc(O)c1", 244),
    ("CC(C)OC(=O)C(C)O (centres undefined)", 167),
    ("c1ccc2c3c([nH]c2c1)CCCC3", 328),
    ("COc1ccc(N=Nc2ccccc2)cc1", 340),
    ("CNCC(OC)OC", 140),
    ("C#CCBr", 89),
    ("CC(C)OB(OC(C)C)OC(C)C", 140),
    ("CC(CO)CO", 195),
    ("CC(N)c1ccccc1 (centres undefined)", 185),
    ("CCOC(C)(C)C", 73.1),
    ("CCCCCCOC(=O)CCCCC", 246),
    ("Ic1ccc(-c2ccccc2)cc1", 320),
    ("Cc1cc(C)cc([N+](=O)[O-])c1", 274),
    ("O=S=Nc1ccccc1", 200),
    ("C=CC(C)(O)CC (centres undefined)", 118),
    ("CC1CNC(C)CN1 (centres undefined)", 163),
    ("CCc1ccc(C)nc1", 178),
    ("C=C(C)Br", 48.4),
    ("CCN(CC)c1ccc(C)cc1", 229),
    ("FC(F)(F)C(F)(F)C(F)(F)C(F)(F)C(F)(F)I", 94.4),
    ("CCc1ccncc1", 168),
    ("CC1=C(C(=O)O)CCC1(C)C", 256),
    ("CCC(Br)CC", 119),
    ("CC(O)C(C)C(C)O (centres undefined)", 212),
    ("Cc1ccc(CC(=O)O)cc1", 265),
    ("Cc1ccoc1", 66),
    ("CCCCCCCCCCCCCN", 276),
    ("C=CC(F)(F)C(F)(F)C(F)(F)C(F)(F)C(F)(F)C(F)(F)C(F)(F)C(F)(F)F", 150),
    ("Ic1ccc(I)cc1", 285),
    ("CCC(C)(O)CCl (centres undefined)", 151),
    ("CCCC1CCCCC1C (centres undefined)", 176),
    ("CC(C)CC(=O)C(C)C", 148),
    ("ClCC(Cl)(Cl)C(Cl)(Cl)Cl", 216),
    ("CC(=O)CCCCBr", 216),
    ("Clc1ccc2ncccc2c1", 263),
    ("FC(F)(Cl)Br", -3.7),
    ("CCCC(C)C(O)CC (centres undefined)", 170),
    ("c1ccc(-c2cccnc2)cc1", 272),
    ("CC(O)(CCl)CCl", 174),
    ("CCOC(=O)C(C)(C)O", 150),
    ("OC(c1ccccc1)c1ccccc1", 298),
    ("FC(F)OC(Cl)C(F)(F)F (centres undefined)", 48.5),
    ("C=CCOc1ccccc1", 192),
    ("O=COCCOC=O", 174),
    ("FCCBr", 71.5),
    ("CC(Cl)(Cl)[N+](=O)[O-]", 124),
    ("CCCCC(=O)OCCC", 168),
    ("O=C(O)c1ccccc1Cl", 287),
    ("CCCCCCC(=O)OCCCC", 226),
    ("CSC(C)C", 84.8),
    ("CC(C)CCOC(=O)CC(C)C", 190),
    ("CN(C)N=O", 154),
    ("CC(Cl)[N+](=O)[O-] (centres undefined)", 124),
    ("Nc1ccc(Cl)c(Cl)c1", 272),
    ("C=CCCCCCCCCCCCCCC", 285),
    ("C[Si](C)(C)OS(=O)(=O)C(F)(F)F", 140),
    ("C1CNCCNC1", 169),
    ("CCCCc1cc(C)ccc1O", 228),
    ("c1ccsc1", 84),
    ("CC(C)NCCO", 173),
    ("CCCc1cccc(CCC)c1O", 256),
    ("CCOC(=O)C(=O)Nc1ccccc1", 280),
    ("O=C(O)CCc1ccccc1", 280),
    ("C#CCCCCCCCCCCCCC", 268),
    ("Oc1cc(Cl)cc(Br)c1", 256),
    ("Cc1cc(C)on1", 143),
    ("CC(F)(F)Cl", -9.7),
    ("Cc1cccc(-c2cccc(C)c2)c1", 280),
    ("CCc1nccnc1CC", 181),
    ("CC(=O)Oc1cc(C)ccc1C(C)C", 245),
    ("CCOC(=O)c1ccccc1O", 232),
    ("O=C(O)CF", 168),
]
